# targetDesc: Bone morphogenetic protein 1 (Homo sapiens)
# Sequence (P13497 whole entry): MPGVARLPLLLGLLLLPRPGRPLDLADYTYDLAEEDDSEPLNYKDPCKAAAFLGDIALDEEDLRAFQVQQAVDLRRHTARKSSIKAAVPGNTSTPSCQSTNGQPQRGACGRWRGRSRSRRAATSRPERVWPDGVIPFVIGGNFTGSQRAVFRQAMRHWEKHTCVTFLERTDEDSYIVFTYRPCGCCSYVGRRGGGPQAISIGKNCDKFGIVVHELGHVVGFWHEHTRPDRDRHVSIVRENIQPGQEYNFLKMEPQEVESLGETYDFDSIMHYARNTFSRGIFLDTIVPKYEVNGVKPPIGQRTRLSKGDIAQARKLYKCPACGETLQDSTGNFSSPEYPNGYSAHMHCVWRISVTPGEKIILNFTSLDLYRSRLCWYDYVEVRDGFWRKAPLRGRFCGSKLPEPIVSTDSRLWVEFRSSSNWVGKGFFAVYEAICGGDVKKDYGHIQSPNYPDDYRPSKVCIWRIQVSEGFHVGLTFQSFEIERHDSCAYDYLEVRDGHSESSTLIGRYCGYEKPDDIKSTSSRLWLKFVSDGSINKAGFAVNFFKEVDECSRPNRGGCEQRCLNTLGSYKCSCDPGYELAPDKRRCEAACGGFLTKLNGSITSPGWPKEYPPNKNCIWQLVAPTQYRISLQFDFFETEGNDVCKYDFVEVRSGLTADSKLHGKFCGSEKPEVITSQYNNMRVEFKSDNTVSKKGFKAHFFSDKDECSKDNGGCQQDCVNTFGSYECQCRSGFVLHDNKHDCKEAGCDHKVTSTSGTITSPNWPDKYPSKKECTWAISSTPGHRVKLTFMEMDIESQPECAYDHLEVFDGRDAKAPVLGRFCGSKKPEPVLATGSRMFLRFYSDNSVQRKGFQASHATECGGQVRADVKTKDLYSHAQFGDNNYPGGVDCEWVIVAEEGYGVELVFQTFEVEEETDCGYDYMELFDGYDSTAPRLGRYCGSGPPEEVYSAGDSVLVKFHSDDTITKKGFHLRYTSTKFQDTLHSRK
# testDetails: Inhibitory activity against procollagen C-Proteinase (PCP).
pIC50: −log10 of the molar value.
Listed here are compounds together with their documented pIC50.

{"compound": "COc1ccc(S(=O)(=O)N(Cc2ccc3c(c2)OCO3)[C@H](CCCNC(=O)NCCc2ccccc2)C(=O)NO)cc1", "pIC50": 7.30}
{"compound": "COc1ccc(S(=O)(=O)N[C@H](CCCNC(=O)OC(C)(C)C)C(=O)NO)cc1", "pIC50": 5.35}
{"compound": "COc1ccc(S(=O)(=O)N[C@H](CCCNC(=O)Nc2ccccc2Cl)C(=O)NO)cc1", "pIC50": 7.04}
{"compound": "COc1ccc(S(=O)(=O)N[C@@H](CCCNC(=O)N[C@H](C)c2cccc3ccccc23)C(=O)NO)cc1", "pIC50": 5.80}
{"compound": "COc1ccc(S(=O)(=O)N[C@@H](CCCNC(=O)NCCc2cccs2)C(=O)NO)cc1", "pIC50": 5.26}
{"compound": "CCOC(=O)NCCC[C@H](C(=O)NO)N(Cc1ccc2c(c1)OCO2)S(=O)(=O)c1ccc(OC)cc1", "pIC50": 6.66}
{"compound": "COc1ccc(S(=O)(=O)N(Cc2cccnc2)[C@@H](C(=O)NO)C(C)C)cc1 [CGS-27023A]", "pIC50": 5.52}
{"compound": "C[C@@H](NC(=O)NCCC[C@@H](NS(=O)(=O)c1ccccc1Cl)C(=O)NO)c1ccccc1", "pIC50": 5.64}
